Target: SOS1:KRAS (G12C) interaction (Homo sapiens (Human), UniProt Q07889)
Sequence (Q07889 564-1049, stated change not applied): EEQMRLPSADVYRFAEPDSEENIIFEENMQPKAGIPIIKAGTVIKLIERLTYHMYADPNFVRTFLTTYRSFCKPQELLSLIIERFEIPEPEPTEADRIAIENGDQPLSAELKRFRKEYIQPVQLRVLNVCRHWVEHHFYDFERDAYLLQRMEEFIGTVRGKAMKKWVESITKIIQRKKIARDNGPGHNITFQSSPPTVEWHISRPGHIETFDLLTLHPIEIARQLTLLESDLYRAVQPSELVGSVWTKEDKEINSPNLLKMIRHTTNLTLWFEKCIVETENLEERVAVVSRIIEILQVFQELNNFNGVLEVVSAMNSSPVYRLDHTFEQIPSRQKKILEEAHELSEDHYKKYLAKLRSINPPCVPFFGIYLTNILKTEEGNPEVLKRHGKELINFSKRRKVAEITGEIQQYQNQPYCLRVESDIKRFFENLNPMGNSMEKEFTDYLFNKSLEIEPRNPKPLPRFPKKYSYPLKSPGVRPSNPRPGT
Assay: SOS1-KRas(G12C) FRET Assay
Details: 0.5 nM His10-SOS1 (res. 564-1049), 2.5 nM GST-KRAS (res. 1-169, G12C); read-out: SOS-KRas(G12C) FRET IC50
For each of the molecules below, state its pIC50.
Answers are plain numbers, as −log10 of the molar value.

Known pIC50 results, listed for orientation:
[
  {
    "molecule": "C[C@@H](Nc1nn(C)c(=O)c2cc(=O)n(C3(C(F)F)CC3)cc12)c1cccc(C(F)(F)C(C)(C)O)c1F [Example 70]",
    "measured-number": 7.78
  },
  {
    "molecule": "C[C@@H](Nc1nn(C)c(=O)c2cc(=O)n(C34COC(C)(C3)C4)cc12)c1cccc(C(F)F)c1F [Example 179]",
    "measured-number": 7.16
  },
  {
    "molecule": "Cc1c([C@@H](C)Nc2nn(C)c(=O)c3c(OCC4CC4)c(=O)n(C4CC4)cc23)cccc1C(F)(F)F [Example 82]",
    "measured-number": 6.32
  }
]

Fill in pIC50 for each of the 3 molecules listed.
1. C[C@@H](Nc1nn(C)c(=O)c2cc(=O)n(C3CCOCC3)cc12)c1cccc(C(C)(F)F)c1F [Example 36]
2. COc1c(=O)n(C2CC2)cc2c(N[C@H](C)c3cccc(C(F)F)c3F)nn(C)c(=O)c12 [Example 85]
3. C[C@H](Nc1nn(C)c(=O)c2cc(=O)n(C3CC3)cc12)c1cccc(C(F)(F)CO)c1F [Example 103]

7.48
6.72
5.11

Please report the recorded pIC50 for Cc1c([C@@H](C)Nc2nn(C)c(=O)c3cc(=O)n(C45COC(C)(C4)C5)cc23)cccc1C(F)(F)F [Example 127] .
7.05

====

Target: SOS1:KRAS (G12C) interaction (Homo sapiens (Human), UniProt Q07889)
Assay: SOS1-KRas(G12C) FRET Assay
Conditions: 0.5 nM His10-SOS1 (res. 564-1049), 2.5 nM GST-KRAS (res. 1-169, G12C); read-out: SOS-KRas(G12C) FRET IC50
Description: Inhibition of the SOS1:KRAS interaction was measured using purified GST-tagged KRAS (res. 1-169, G12C, purified based on Hillig, et al., Proc Natl Acad Sci USA (2019); 116(7):2551-2560) and recombinant His10-SOS1 (res. 564-1049; purified based on Hillig, et al.). […] Plates were incubated at RT for 2 hrs before the FRET signal was measured using Envision at emission 665 nm and 615 nm. […]
For each of the compounds below, state its log10 of IC50.
Short version: log10 scale, IC50, nM.

Known log10 of IC50 results, listed for orientation:
[
  {
    "compound": "COc1c(=O)n([C@]2(C(F)(F)F)CCOC2)cc2c(N[C@H](C)c3cccc(C(F)F)c3F)nn(C)c(=O)c12 (single isomer, unassigned)",
    "measured-number": 2.58
  },
  {
    "compound": "CNC(=O)C(F)(F)c1cccc([C@@H](C)Nc2nn(C)c(=O)c3cc(=O)n(C4CC4)cc23)c1F",
    "measured-number": 2.43
  },
  {
    "compound": "C[C@@H](Nc1nn(C)c(=O)c2cc(=O)n(C3CCOCC3)cc12)c1cccc(C(F)(F)C(C)(C)O)c1F",
    "measured-number": 1.32
  },
  {
    "compound": "C[C@@H](Nc1nn(C)c(=O)c2cc(=O)n([C@]3(C(F)(F)F)CCOC3)cc12)c1cccc2c1OCC2(F)F (single isomer, unassigned)",
    "measured-number": 2.42
  },
  {
    "compound": "C[C@@H](Nc1nn(C)c(=O)c2c(OC3COC3)c(=O)n(C3(C(F)F)CC3)cc12)c1cccc(C(F)F)c1F",
    "measured-number": 1.92
  }
]

Fill in log10 of IC50 for each of the 8 compounds listed.
1. C[C@@H](Nc1nn(C)c(=O)c2cc(=O)n([C@H]3CC34CCC(F)(F)CC4)cc12)c1cccc(C(F)F)c1F (single isomer, unassigned)
2. C[C@@H](Nc1nn(C)c(=O)c2cc(=O)n([C@]34C[C@H]3CN(C(=O)C3CC3)C4)cc12)c1cccc(C(F)F)c1F (single isomer, unassigned)
3. C[C@@H](Nc1nn(C)c(=O)c2cc(=O)n(C3(C(F)(F)F)CC3)cc12)c1cccc(C(F)F)c1F
4. CC(=O)N1CC[C@@](n2cc3c(N[C@H](C)c4cccc5c4OCC5(F)F)nn(C)c(=O)c3cc2=O)(C(F)(F)F)C1 (single isomer, unassigned)
5. CC(=O)N1CCC(n2cc3c(N[C@H](C)c4cccc(C(F)(F)F)c4C)nn(C)c(=O)c3cc2=O)CC1
6. C[C@@H](Nc1nn(C)c(=O)c2cc(=O)n(C3CC3)cc12)c1cccc2sccc12
7. C[C@@H](Nc1nn(C)c(=O)c2cc(=O)n(C34CNC(C3)C4)cc12)c1cccc(C(F)F)c1F
8. CC(=O)N1CC[C@](n2cc3c(N[C@H](C)c4cccc(C(F)F)c4F)nn(C)c(=O)c3cc2=O)(C(F)(F)F)C1 (single isomer, unassigned)

1.92
1.89
1.84
0.81
2.46
2.10
1.92
3.28

Fill in log10 of IC50 for each of the 6 compounds listed.
1. Cc1c([C@@H](C)Nc2nn(C)c(=O)c3cc(=O)n([C@H]4C[C@H](O)C4)cc23)cccc1C(F)(F)F
2. C[C@@H](Nc1nn(C)c(=O)c2cc(=O)n([C@H]3C[C@@H]3C(F)(F)F)cc12)c1cccc(C(F)F)c1F (single isomer, unassigned)
3. Cc1c([C@@H](C)Nc2nn(C)c(=O)c3c(Br)c(=O)n(C4CC4)cc23)cccc1C(F)(F)F
4. C[C@@H](Nc1nn(C)c(=O)c2cc(=O)n([C@H]3CCOC[C@@H]3F)cc12)c1cccc(C(F)F)c1F (single isomer, unassigned)
5. C[C@@H](Nc1nn(C)c(=O)c2cc(=O)n(C3CC3)cc12)c1cccc(C(F)F)c1F
6. C[C@@H](Nc1nn(C)c(=O)c2cc(=O)n(C3CC3)cc12)c1ccc2ccccc2c1

1. 2.00
2. 1.96
3. 2.54
4. 1.32
5. 2.39
6. 3.39

Fill in log10 of IC50 for each of the 3 compounds listed.
1. CC(=O)N1C[C@H]2C[C@@]2(n2cc3c(N[C@H](C)c4cccc(C(F)F)c4F)nn(C)c(=O)c3cc2=O)C1 (single isomer, unassigned)
2. C[C@@H](Nc1nn(C)c(=O)c2cc(=O)n([C@]34COC[C@H]3C4)cc12)c1cccc(C(F)F)c1F
3. C[C@@H](Nc1nn(C)c(=O)c2cc(=O)n(C3CCOCC3)cc12)c1cccc2c1CCC2(F)F

1. 2.08
2. 1.61
3. 1.39

Fill in log10 of IC50 for each of the 2 compounds listed.
1. Cc1cc([C@H](C)Nc2nn(C)c(=O)c3cc(=O)n(C4CC4)cc23)cc(C(F)(F)F)c1
2. CC(=O)N1C[C@@H]2C[C@]2(n2cc3c(N[C@H](C)c4cccc(C(F)F)c4F)nn(C)c(=O)c3cc2=O)C1 (single isomer, unassigned)

[2.75, 1.50]

====

Molecular target: SOS1:KRAS (G12C) interaction (Homo sapiens (Human))
Test: SOS1-KRas(G12C) FRET Assay
Settings: 0.5 nM His10-SOS1 (res. 564-1049), 2.5 nM GST-KRAS (res. 1-169, G12C); read-out: SOS-KRas(G12C) FRET IC50
recorded-endpoint: IC50 (nM)
Give bare numbers, in nM.

Known IC50 results, listed for orientation:
[
  {
    "compound": "Cc1c([C@@H](C)Nc2nn(C)c(=O)c3cc(=O)n(C4CCOCC4)cc23)cccc1C(F)(F)F [Example 4]",
    "unit": "nM",
    "IC50": 54.6
  },
  {
    "compound": "Cc1c([C@@H](C)Nc2nn(C)c(=O)c3c(C)c(=O)n(C4CC4)cc23)cccc1C(F)(F)F [Example 7]",
    "unit": "nM",
    "IC50": 1050
  },
  {
    "compound": "C[C@@H](Nc1nn(C)c(=O)c2cc(=O)n(C3CCOCC3)cc12)c1cccc2c(F)coc12 [Example 46]",
    "unit": "nM",
    "IC50": 62.4
  }
]

Fill in IC50 for each of the 5 compounds listed.
1. C[C@H](Nc1nn(C)c(=O)c2cc(=O)n(C3CCOCC3)cc12)c1cccc2c1CCC2(F)F [Example 68]
2. C[C@@H](Nc1nn(C)c(=O)c2cc(=O)n([C@@]34C[C@@H]3CN(C(=O)C3CC3)C4)cc12)c1cccc(C(F)F)c1F (single isomer, unassigned) [Example 141]
3. Cc1c([C@@H](C)Nc2nn(C)c(=O)c3c([C@H]4CCCN4)c(=O)n(C4CC4)cc23)cccc1C(F)(F)F [Example 35]
4. C[C@@H](Nc1nn(C)c(=O)c2cc(=O)n([C@]3(C(F)(F)F)CCNC3)cc12)c1cccc(C(F)F)c1F (single isomer, unassigned) [Example 95]
5. COc1c(=O)n(C2CCOCC2)cc2c(N[C@H](C)c3cccc(C(F)(F)C(C)(C)O)c3F)nn(C)c(=O)c12 [Example 41]

1. 1710
2. 25
3. 78.4
4. 394
5. 27.9

Please report the recorded IC50 for Cc1c([C@@H](C)Nc2nn(CCN3CC(C)(F)C3)c(=O)c3cc(=O)n(C4CC4)cc23)cccc1C(F)(F)F [Example 79] .
300
